# System: CCRF-CEM leukemia
# assay-overview: NCI-60 one-dose screen, 48 h (100 = growth as untreated, 0 = no growth, -100 = all killed)
# setup-conditions: 10 µM unless noted
The panel holds about 83,000 compounds, 20% with a hit somewhere; the sample as a whole holds those more often.
Examples of compounds with documented growth follow.
Lab book: enter the figure in %, no units written.

Below, each entry is followed by its recorded growth result.
compound=NS(=O)(=O)c1ccc(Nc2nc(N/N=C/c3ccc4c(c3)OCO4)nc(Nc3ccccc3)n2)cc1 unit_string=% test_result=16.3
compound=Cc1ccc(NC(=O)/C=C/c2ccc(OCCCOc3ccc4c(C)cc(=O)oc4c3)cc2)cc1 unit_string=% test_result=99.1
compound=O=C(CSc1nnc(-c2ccc(Cl)cc2)n1-c1ccccc1)Nc1cccc(F)c1 unit_string=% test_result=91.3
compound=CN1CCN(c2ccc(Nc3nc(NCCCNS(=O)(=O)c4cccc(F)c4)c4sccc4n3)cc2)CC1 unit_string=% test_result=19.2
compound=C=C(C)[C@@H]1CC[C@]2(COP(=O)(OCC)OCC)CC[C@]3(C)[C@H](CC[C@@H]4[C@@]5(C)CC[C@H](OP(=O)(OCC)OCC)C(C)(C)[C@@H]5CC[C@]43C)[C@@H]12 unit_string=% test_result=39.4

Kindly note the recorded growth for O=C(NNc1nc2cc(F)cc(F)c2n2cccc12)c1cccnn1 , which is 6.41

Kindly note the recorded growth for CC1CC(=O)C2=C(C1)Nc1ccc(Br)cc1CC2c1c[nH]c2ccc(Br)cc12 (stereo unspecified) , which is 29.7

Kindly note the recorded growth for COC(=O)c1cccc(NC2=CC(=O)C(C)=C(C)C2=O)c1 , which is 52.8

Kindly note the recorded growth for CN1CCN(c2ccc(Nc3nc(NCCCNS(=O)(=O)c4ccc(C(F)(F)F)cc4)c4sccc4n3)cc2)CC1 , which is 6.25

Kindly note the recorded growth for CC1(C)CC[C@]2(C(=O)NCCCCCCN(CCCN)CCCN)CC[C@]3(C)C(=CC[C@@H]4[C@@]5(C)CC[C@H](O)C(C)(C)[C@@H]5CC[C@]43C)[C@@H]2C1 , which is 105

Kindly note the recorded growth for CN1CCN(c2ccc(Nc3nc(NCCNC(=O)c4ccccc4)c4sccc4n3)cc2)CC1 , which is 27.9

Kindly note the recorded growth for COc1ccccc1/C=C/C(=O)c1nnn(-c2ccc(F)cc2)c1C , which is 14

Kindly note the recorded growth for Cc1ccc(CSC2=C(Cl)CN(c3ccc(Cl)cc3)C2=O)cc1 , which is 106

Kindly note the recorded growth for CCOP(=O)(OCC)OC[C@]12CC[C@@H](C)[C@H](C)C1C1=CC[C@@H]3[C@@]4(C)CCCNC(C)(C)[C@@H]4CC[C@@]3(C)[C@]1(C)CC2 (stereo partly specified) , which is -33.3

Kindly note the recorded growth for O=C1Nc2ccc(F)cc2/C1=C\C(=O)c1ccc(NS(=O)(=O)c2ccccc2)cc1 , which is 8.68

---

# Tested on: MDA-MB-435 melanoma
# assay-overview: NCI-60 one-dose screen, 48 h (100 = growth as untreated, 0 = no growth, -100 = all killed)
# setup-conditions: 10 µM unless noted
# Protocol: Growth inhibition of the MDA-MB-435 human Melanoma tumor cell line is measured as a screen for anti-cancer activity. Cells are grown in 96 well plates and exposed to the test compound for 48 hours. Compounds are tested at a single concentration, which is 10^-5 M for most compounds. The reported endpoint is percent growth (GI% or GIPRCNT), where numbers from 0 - 100% represent growth inhibition, and numbers from -100% - 0 represent cell death. […]
This is part of a sample that, as a whole, favours compounds with a hit. Of some 83,000 tested, about 20% had one in any assay.
growth strictly less than 80% = 1.0. Otherwise 0.0.

The examples below pair each entry with its known result.
compound=CC1=C(C)C(=O)C(Nc2cccc(C(=O)OC(C)(C)C)c2)=CC1=O assigned_label=0.0
compound=CCN(CC)c1ccc(/C=N/NC(=O)c2ccc(S(N)(=O)=O)cc2)c(O)c1 assigned_label=1.0
compound=N#C/C(=C\c1cccc2c1OCO2)C(=O)Nc1sc2c(c1C#N)CCCC2 assigned_label=0.0
compound=CC(C)[C@H]1c2[nH]c3ccccc3c2C[C@H]2C(=O)N(CCCCCCC(=O)NO)CC(=O)N12 assigned_label=1.0
compound=COC(=O)c1cccc(NC2=C(Cl)C(=O)C(C)=C(C)C2=O)c1 assigned_label=0.0

# next compound below
Would you kindly verify if growth of CN1CCN(c2ccc(C(=O)/C=C/c3cc(F)cc(C(F)(F)F)c3)cc2)CC1 is strictly less than 80%? 1.0

These entries and their values trace back to PubChem BioAssay (NCI).
